Tested on: α2-GABAA receptor
assay remarks: Ligand-binding assay, radiolabeled flumazenil competition, spinal cord membranes
Design: species or system rat
assay setup: 10^−5M; rat spinal cord membranes, radiolabeled flumazenil 1 nM
assay endpoint: Affinity for the α2-subunit of the GABAA receptor, % inhibition (%)
Respond with the bare value in %.

Solved entries (count: 5):
compound | target system | numeric result
CCCN(CCC)C(=O)Cn1cc(-c2ccccc2)c(=O)c2ccc(C)cc21 | α2-GABAA receptor | 77.3
CCN(CC)C(=O)Cn1cc(-c2ccccc2)c(=O)c2ccc(C)cc21 | α2-GABAA receptor | 70.1
Cc1ccc2c(=O)c(-c3ccccc3)cn(CC(=O)N3C(C)C=CC3C)c2c1 (stereo not drawn) | α2-GABAA receptor | 74.1
CCCN(CCC)C(=O)Cn1cc(-c2ccccc2)c(=O)c2ccccc21 | α2-GABAA receptor | 68.9
Cc1ccc2c(=O)c(-c3ccccc3)cn(CC(=O)c3ccccn3)c2c1 | α2-GABAA receptor | 88.0

As a next step, examine the compound that follows.
### Prompt Look at this compound and give its reported Affinity for the α2-subunit of the GABAA receptor, % inhibition. "Cc1ccc2c(=O)c(-c3ccccc3)cn(CC(=O)N3CCCC3)c2c1"
### Response 66.3

====

Tested on: α2-GABAA receptor
assay remarks: Ligand-binding assay, radiolabeled flumazenil competition, spinal cord membranes
Parameters: species or system rat
assay setup: 10^−7M; rat spinal cord membranes, radiolabeled flumazenil 1 nM
assay endpoint: Affinity for the α2-subunit of the GABAA receptor, % inhibition (%)
Respond with the bare value in %.

Solved entries (count: 6):
compound | target system | numeric result
C=CCN(CC=C)C(=O)Cn1cc(-c2ccccc2)c(=O)c2ccc(C)cc21 | α2-GABAA receptor | 12.5
Cc1ccc2c(=O)c(-c3ccccc3)cn(CC(=O)c3ccccn3)c2c1 | α2-GABAA receptor | 0.0
Cc1ccc2c(=O)c(-c3ccccc3)cn(CC(=O)N3CC(C)OC(C)C3)c2c1 (stereo not drawn) | α2-GABAA receptor | 0.0
C=CCN(CC=C)C(=O)Cn1cc(-c2ccc(OC)cc2)c(=O)c2ccc(C)cc21 | α2-GABAA receptor | 0.0
CCCN(CCC)C(=O)Cn1cc(-c2ccccc2)c(=O)c2ccc(C)cc21 | α2-GABAA receptor | 40.6
CCN(CC)C(=O)Cn1cc(-c2ccccc2)c(=O)c2ccc(C)cc21 | α2-GABAA receptor | 0.0

### Prompt Look at this compound and give its reported Affinity for the α2-subunit of the GABAA receptor, % inhibition. Cc1ccc2c(=O)c(-c3ccccc3)cn(CC(=O)N3C(C)C=CC3C)c2c1 (stereo not drawn)
### Response 0.0

### Prompt Also "COc1ccc(NC(=O)Cn2cc(-c3ccc(OC)cc3)c(=O)c3ccc(C)cc32)cc1" , if possible.
### Response 15.7

### Prompt Also "CCCN(CCC)C(=O)Cn1cc(-c2ccccc2)c(=O)c2ccccc21" , if possible.
### Response 0.0
